# study.system: Serine/threonine-protein kinase pim-2 (Homo sapiens, UniProt Q9P1W9)
# Sequence (Q9P1W9 whole entry): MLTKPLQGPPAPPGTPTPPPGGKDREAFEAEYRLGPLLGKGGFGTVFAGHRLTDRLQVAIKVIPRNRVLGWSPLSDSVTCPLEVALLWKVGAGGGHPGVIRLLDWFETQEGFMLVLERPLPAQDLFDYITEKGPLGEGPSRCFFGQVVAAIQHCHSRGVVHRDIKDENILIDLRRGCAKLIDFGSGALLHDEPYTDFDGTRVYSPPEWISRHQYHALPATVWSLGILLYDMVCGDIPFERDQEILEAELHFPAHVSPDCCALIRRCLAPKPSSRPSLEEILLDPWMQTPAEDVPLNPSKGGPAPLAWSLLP
pIC50: −log10 of the molar value.
property.label: pIC50

Query: Under Serine/threonine-protein kinase pim-2 (Homo sapiens, UniProt Q9P1W9): pIC50 value of "N#Cc1c(-c2ccccc2)cc(-c2cc(Br)ccc2O)[nH]c1=O" ?
Reply: < 4.70

###

Listed below: IC50 values for each entry.
# study.system: Serine/threonine-protein kinase pim-1 (Homo sapiens)
# Sequence (P11309 whole entry): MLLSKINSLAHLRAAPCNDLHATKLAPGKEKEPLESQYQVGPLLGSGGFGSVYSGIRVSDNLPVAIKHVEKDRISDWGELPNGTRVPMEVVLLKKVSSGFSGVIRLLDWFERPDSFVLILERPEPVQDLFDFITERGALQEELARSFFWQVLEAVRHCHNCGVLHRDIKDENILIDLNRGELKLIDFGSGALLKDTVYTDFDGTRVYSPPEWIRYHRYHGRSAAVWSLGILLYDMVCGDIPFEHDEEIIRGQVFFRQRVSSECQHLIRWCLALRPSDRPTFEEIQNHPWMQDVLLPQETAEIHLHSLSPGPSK
# experiment.summary: Inhibition of Pim1 kinase

N#Cc1c(-c2ccncc2)c2c([nH]c1=O)-c1ccccc1OC2; 20 µM
COc1ccc(-c2c3c([nH]c(=O)c2C#N)-c2ccccc2OC3)cc1; > 20 µM

Query: Entry "N#Cc1c(-c2cccnc2)c2c([nH]c1=O)-c1ccccc1SC2" : reported IC50 = ?
Reply: 4.79 µM

Query: Entry "N#Cc1c(-c2ccc(Cl)cc2)c2c([nH]c1=O)-c1ccccc1OC2" : reported IC50 = ?
Reply: 0.92 µM

Query: Entry "N#Cc1c(-c2ccccc2Cl)c2c([nH]c1=O)-c1ccccc1SC2" : reported IC50 = ?
Reply: 20 µM

Query: Entry "N#Cc1c(-c2ccc(F)cc2)c2c([nH]c1=O)-c1ccccc1SC2" : reported IC50 = ?
Reply: > 20 µM

Query: Entry "Nc1n[nH]c2nc(-c3cc(Br)ccc3O)cc(-c3ccccc3)c12" : reported IC50 = ?
Reply: 1.77 µM

Query: Entry "N#Cc1c(-c2ccncc2)c2c([nH]c1=O)-c1ccccc1CC2" : reported IC50 = ?
Reply: > 20 µM

Query: Entry "N#Cc1c(-c2ccccc2)cc(-c2ccc(O)cc2)nc1N" : reported IC50 = ?
Reply: 4.41 µM

###

# study.system: Dual specificity mitogen-activated protein kinase kinase 1 (Homo sapiens)
# Sequence (Q02750 whole entry): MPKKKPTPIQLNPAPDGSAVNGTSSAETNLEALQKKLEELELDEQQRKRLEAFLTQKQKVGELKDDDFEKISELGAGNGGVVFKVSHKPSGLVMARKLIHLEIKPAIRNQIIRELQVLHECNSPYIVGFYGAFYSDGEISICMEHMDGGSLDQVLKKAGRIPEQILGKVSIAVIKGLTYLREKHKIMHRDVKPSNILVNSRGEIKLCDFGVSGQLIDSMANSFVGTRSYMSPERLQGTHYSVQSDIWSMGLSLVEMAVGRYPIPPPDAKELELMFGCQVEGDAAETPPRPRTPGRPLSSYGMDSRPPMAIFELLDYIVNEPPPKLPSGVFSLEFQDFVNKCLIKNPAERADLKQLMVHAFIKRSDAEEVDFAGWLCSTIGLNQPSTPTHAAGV
# experiment.summary: Inhibition of MEK1 kinase
property.label: IC50

Query: Entry "N#Cc1c(-c2ccccc2)cc(-c2cc(Br)ccc2O)[nH]c1=O" : reported IC50 = ?
Reply: > 20 µM

Every entry's value here was drawn from ChEMBL document CHEMBL1139114.
